Tested on: MDA-MB-231
assay.method.text: MTT cell growth inhibition, MDA-MB-231
Assay type: cell-based
measurement.setup: Homo sapiens, MDA-MB-231, 96 h, read-out: IC50 MDA-MB-231
pIC50: −log10 of the molar value.
value.kind: pIC50

Example cases with answers are listed next.
compound | pIC50
COc1cccc2nc(Cl)cc(NC3CCN(Cc4ccccc4)CC3)c12 [Compound 1] | < 4.70
COc1cccc2nc(Nc3ncccn3)cc(NC3CCN(Cc4ccccc4)CC3)c12 [Compound 5d] | < 4.70
COc1ccc2c(NC3CCN(C)CC3)cc(N3CCCN(C)CC3)nc2c1OC [Compound 9i] | < 4.70
COc1cccc2nc(N3CCCN(C)CC3)cc(Nc3cncnc3)c12 [Compound 5t] | < 4.70
COc1ccc(Nc2cc(N3CCCN(C)CC3)nc3cccc(OC)c23)cc1 [Compound 5m] | < 4.70

Task item: Need pIC50 of COc1cccc2nc(N3CCCN(C)CC3)cc(Nc3cc(C(F)(F)F)cc(C(F)(F)F)c3)c12 [Compound 5v] , thanks.
Reply: < 4.70

Task item: Need pIC50 of COc1cccc2nc(Nc3cc(C(F)(F)F)cc(C(F)(F)F)c3)cc(NC3CCN(Cc4ccccc4)CC3)c12 [Compound 5f] , thanks.
Reply: < 4.70

Task item: Need pIC50 of COc1cccc2nc(N3CCCN(C)CC3)cc(NC3CCOCC3)c12 [Compound 5l] , thanks.
Reply: 5.62

Task item: Need pIC50 of COc1cccc2nc(Nc3ccc([N+](=O)[O-])cc3)cc(NC3CCN(Cc4ccccc4)CC3)c12 [Compound 5e] , thanks.
Reply: 4.83

Task item: Need pIC50 of COc1cccc2nc(N3CCCN(C)CC3)cc(NCCC(C)C)c12 [Compound 5h] , thanks.
Reply: 5.37

Task item: Need pIC50 of COc1cccc2nc(N3CCCN(C)CC3)cc(Nc3ccc(C)cc3)c12 [Compound 5r] , thanks.
Reply: < 4.70

Task item: Need pIC50 of COc1cccc2nc(N3CCCN(C)CC3)cc(NC3CCN(C(C)C)CC3)c12 [Compound 5i] , thanks.
Reply: 4.80

Task item: Need pIC50 of COc1cc(OC)c2c(NC3CCN(C)CC3)cc(N3CCCN(C)CC3)nc2c1 [Compound 9e] , thanks.
Reply: 4.90
